Task for the reader: assign each of the following compounds its reported Narcosis potentiating activity on mice, Relative activity.
# Test system: mice
# measurement protocol: Narcosis potentiating activity on mice (sodium hexobarbital narcosis)
# Assay type: in vivo
# particulars: 100 mg/kg p.o., relative to Grandaxin (1.0)
Keep it simple and answer with nothing but the number.

For record "COc1cc2c(cc1OC)C(c1cccc(F)c1)=NN=C(C)C2" the listed Narcosis potentiating activity on mice, Relative activity is 1.60

Lab note: CCC(C)Oc1cc2c(cc1OC)C(c1ccc(OC)c(OC)c1)=NN=C(C)C2CC (stereo not shown) gave Narcosis potentiating activity on mice, Relative activity of 3.26

# compound COc1cc2c(cc1OC)C(C)C(C)=NN=C2c1cccc(Cl)c1 (stereo not shown) ; its Narcosis potentiating activity on mice, Relative activity = 0.91

// Narcosis potentiating activity on mice, Relative activity value for CCC1C(C)=NN=C(c2ccc(OC)c(OC)c2)c2cc(OC)c(OC)cc21 (stereo not shown) [Grandaxin, reference compound] : 1.0
